Reference for the values: ChEMBL document CHEMBL4808148

Exercise: state measured inhibition for each of the compounds provided.
Biological target: Protein deacetylase HDAC6 (Homo sapiens) (UniProt Q9UBN7)
Sequence (Q9UBN7 whole entry): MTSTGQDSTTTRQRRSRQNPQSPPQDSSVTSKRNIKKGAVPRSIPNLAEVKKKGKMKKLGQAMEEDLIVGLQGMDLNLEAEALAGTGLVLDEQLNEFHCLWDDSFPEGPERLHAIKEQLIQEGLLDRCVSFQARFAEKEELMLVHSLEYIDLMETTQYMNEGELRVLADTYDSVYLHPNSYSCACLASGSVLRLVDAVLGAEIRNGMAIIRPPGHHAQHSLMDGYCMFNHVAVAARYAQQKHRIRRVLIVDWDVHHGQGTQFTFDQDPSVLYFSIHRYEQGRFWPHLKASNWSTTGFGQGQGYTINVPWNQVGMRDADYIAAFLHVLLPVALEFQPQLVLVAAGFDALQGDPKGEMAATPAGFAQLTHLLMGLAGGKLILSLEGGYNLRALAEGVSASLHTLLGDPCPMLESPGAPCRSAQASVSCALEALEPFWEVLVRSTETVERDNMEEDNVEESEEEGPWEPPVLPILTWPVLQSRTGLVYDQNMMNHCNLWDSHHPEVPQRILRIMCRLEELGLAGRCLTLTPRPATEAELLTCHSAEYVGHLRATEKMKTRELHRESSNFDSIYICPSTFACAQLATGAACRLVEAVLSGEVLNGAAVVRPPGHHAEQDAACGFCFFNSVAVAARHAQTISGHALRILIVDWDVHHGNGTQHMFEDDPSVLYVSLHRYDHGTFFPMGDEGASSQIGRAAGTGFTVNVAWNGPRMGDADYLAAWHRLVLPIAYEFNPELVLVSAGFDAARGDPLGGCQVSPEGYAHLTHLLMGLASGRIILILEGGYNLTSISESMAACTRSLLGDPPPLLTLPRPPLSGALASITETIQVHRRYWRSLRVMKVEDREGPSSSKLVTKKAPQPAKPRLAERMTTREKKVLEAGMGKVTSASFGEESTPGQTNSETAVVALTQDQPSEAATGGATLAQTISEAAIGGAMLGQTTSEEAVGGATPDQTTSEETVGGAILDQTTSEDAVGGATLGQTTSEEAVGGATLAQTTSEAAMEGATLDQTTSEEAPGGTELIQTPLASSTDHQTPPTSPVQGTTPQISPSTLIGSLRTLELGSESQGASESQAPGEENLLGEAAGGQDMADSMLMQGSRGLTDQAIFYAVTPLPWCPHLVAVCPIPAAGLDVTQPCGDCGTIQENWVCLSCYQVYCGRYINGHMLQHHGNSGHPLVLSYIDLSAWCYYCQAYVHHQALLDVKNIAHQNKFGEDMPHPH
Settings: at 10 µM
Among all 5,600 compounds or so, about 390 (7%) showed an effect of 50% or more. Only a selection was taken, and strong results are over-represented in it overall.
Numbers only, in %.

Below, 4 compounds whose answers are already recorded.
[
  {
    "chemical-structure": "CNC(=O)Oc1cccc2ccccc12",
    "tested-on": "Protein deacetylase HDAC6 (Homo sapiens) (UniProt Q9UBN7)",
    "unit-label": "%",
    "inhibition": 25.3
  },
  {
    "chemical-structure": "C[C@@H](O[C@H]1OCCN(Cc2nn[nH]c2CN(C)C)[C@H]1c1ccc(F)cc1)c1cc(C(F)(F)F)cc(C(F)(F)F)c1",
    "tested-on": "Protein deacetylase HDAC6 (Homo sapiens) (UniProt Q9UBN7)",
    "unit-label": "%",
    "inhibition": 12.9
  },
  {
    "chemical-structure": "CCOC(=O)[C@H](CCc1ccccc1)N[C@@H](C)C(=O)N1Cc2cc(OC)c(OC)cc2C[C@H]1C(=O)O",
    "tested-on": "Protein deacetylase HDAC6 (Homo sapiens) (UniProt Q9UBN7)",
    "unit-label": "%",
    "inhibition": -0.68
  },
  {
    "chemical-structure": "COc1cc(OCc2cccc(-c3ccccc3)c2C)cc(OC)c1CN1CCCC[C@H]1C(=O)O",
    "tested-on": "Protein deacetylase HDAC6 (Homo sapiens) (UniProt Q9UBN7)",
    "unit-label": "%",
    "inhibition": 64.2
  }
]

Q: Could you share which inhibition value was measured for C[C@@H]([C@H](O)c1ccccc1)N(C)C ?
Ans: -0.94
